All values here come from paper PMC12040169.

assay: in vitro; details: human, hela cells, % viability
outcome_measure: viability at 28.5 h, 10 µM (%)
Just the number in %, nothing appended.

# input molecule: Cn1ccnc1Sc1nc2ccccc2nc1C(F)(F)F [CBK093778] ; wanted: its viability at 28.5 h, 10 µM
# output 106

# input molecule: CC(C)(C)Oc1nc(=O)[nH]c(=O)[nH]1 [CBK007194] ; wanted: its viability at 28.5 h, 10 µM
# output 98.3

# input molecule: O=C(O)CSc1nc(Nc2ccccc2)nc(N2CCOCC2)n1 [CBK269023] ; wanted: its viability at 28.5 h, 10 µM
# output 107
